- TEST TARGET: Src tyrosine kinase
- MEASUREMENT DESCRIPTION: steady-state kinetics, radioactive kinase assay; ATP-binding site of Src
[ ]: non-standard residue; d: D form. pY = N[C@@H](Cc1ccc(OP(=O)(O)O)cc1)C(=O)O; βAla = NCCC(=O)O
ENDPOINT: pKi
Convention used: pKi is expressed as -log10 of the molar concentration.

Data request, read-out pKi, for {ATP}-[βAla][pY]EEI-OH (also called compound 1; ATP-phosphopeptide conjugate 1) [ATP-βAla-pTyr-Glu-Glu-Ile-OH (1)] 5.77
